Reference source for all entries: paper PMC4046262

# tested.on: AtCRY1 PHR (Arabidopsis thaliana)
# Sequence (Q43125 1-509): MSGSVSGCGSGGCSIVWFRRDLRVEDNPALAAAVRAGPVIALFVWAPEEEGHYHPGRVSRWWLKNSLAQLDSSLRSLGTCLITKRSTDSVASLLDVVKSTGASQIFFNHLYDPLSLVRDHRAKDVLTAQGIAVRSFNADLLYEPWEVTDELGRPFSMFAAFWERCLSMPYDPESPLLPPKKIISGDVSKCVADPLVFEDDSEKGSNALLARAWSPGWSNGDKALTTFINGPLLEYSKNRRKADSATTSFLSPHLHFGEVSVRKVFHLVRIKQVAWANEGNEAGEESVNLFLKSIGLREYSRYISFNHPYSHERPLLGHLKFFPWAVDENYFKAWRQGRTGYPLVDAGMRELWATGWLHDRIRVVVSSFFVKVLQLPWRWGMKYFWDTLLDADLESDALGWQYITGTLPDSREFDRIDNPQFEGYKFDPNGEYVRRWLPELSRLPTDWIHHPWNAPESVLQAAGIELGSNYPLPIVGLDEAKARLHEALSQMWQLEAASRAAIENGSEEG
recorded.endpoint: Kd (nM)
# number only, unit nM dropped from output

IN: State its Kd: Nc1ncnc2c1ncn2[C@@H]1O[C@H](COP(=O)(O)OP(=O)(O)OP(=O)(O)O)[C@@H](O)[C@H]1O
OUT: 1400
